Values from patent US6737383B1

# System: wheat
# assay.summary: Test B pre/postemergence wheat
# Assay type: in vivo, Triticum aestivum
# measurement.setup: Preemergence, Rate 125 g/ha; scale of 0 to 10 where 0 is no effect and 10 is complete control
recorded.metric: Plant response rating, Wheat
Respond with the number and no other words.

Worked examples follow.
{"compound": "CCC(C)n1c(=O)on(C(=O)N(c2ccc(F)cc2)C(C)C)c1=O (stereo not drawn)", "Plant response rating, Wheat": 4}
{"compound": "Cc1nc(Cl)sc1C(C)n1c(=O)on(C(=O)N(c2ccc(Cl)cc2)C(C)C)c1=O (stereo not drawn)", "Plant response rating, Wheat": 0}

Let's switch to this compound now.
Output Plant response rating, Wheat of COCC(OC)n1c(=O)on(C(=O)N(c2ccc(F)cc2)C(C)C)c1=O (stereo not drawn)
2
